From: patent US10519134B2

pIC50: −log10 of the molar value.
Reported values: pIC50 for UniProt:Q99685, one per item.
Sequence (Q99685 whole entry): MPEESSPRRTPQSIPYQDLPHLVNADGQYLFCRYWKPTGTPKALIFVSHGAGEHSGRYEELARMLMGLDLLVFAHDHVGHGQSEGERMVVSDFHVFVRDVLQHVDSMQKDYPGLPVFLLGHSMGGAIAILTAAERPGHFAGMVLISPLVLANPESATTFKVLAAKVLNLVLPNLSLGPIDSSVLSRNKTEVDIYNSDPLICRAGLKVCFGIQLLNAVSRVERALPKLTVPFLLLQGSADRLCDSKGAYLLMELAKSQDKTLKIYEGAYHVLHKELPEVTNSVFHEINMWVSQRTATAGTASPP

Solved cases (5 shown):
IN: For UniProt:Q99685, give the measured pIC50 of the entry `CS(=O)(=O)Nc1ccn(C(=O)N2CCN(Cc3ccc(C(F)(F)F)cc3N3CCN(C(=O)N4CCC4)CC3)CC2)n1`
OUT: 6.00 to 7.00

IN: For UniProt:Q99685, give the measured pIC50 of the entry `CS(=O)(=O)Nc1ccn(C(=O)N2CCN(Cc3ccc(C(F)(F)F)cc3N3CCOCC3)CC2)n1`
OUT: ≥ 7.00

IN: For UniProt:Q99685, give the measured pIC50 of the entry CC1CCCN1c1cc(CN2CCN(C(=O)n3ccc(NS(C)(=O)=O)n3)CC2)cc(C(F)(F)F)c1 (stereo not shown)
OUT: ≥ 7.00

IN: For UniProt:Q99685, give the measured pIC50 of the entry `CS(=O)(=O)Nc1ccn(C(=O)N2CCN(Cc3ccc(Cl)c(N4C5CCC4COC5)c3)CC2)n1`
OUT: ≥ 7.00

IN: For UniProt:Q99685, give the measured pIC50 of the entry `CS(=O)(=O)Nc1ccn(C(=O)N2CCN(Cc3ccc(C(F)(F)F)cc3-c3ccc(C(F)(F)F)nc3)CC2)n1`
OUT: 6.00 to 7.00

Further cases:
IN: For UniProt:Q99685, give the measured pIC50 of the entry CC1CCCN1c1cc(C(F)(F)F)ccc1CN1CCN(C(=O)n2ccc(NS(C)(=O)=O)n2)CC1 (stereo not shown)
OUT: ≥ 7.00

IN: For UniProt:Q99685, give the measured pIC50 of the entry `CS(=O)(=O)Nc1ccn(C(=O)N2CCC3(CCCN3Cc3cc(Cl)cc(C(F)(F)F)c3)CC2)n1`
OUT: ≥ 7.00

IN: For UniProt:Q99685, give the measured pIC50 of the entry `CS(=O)(=O)Nc1ccn(C(=O)N2CCC3(CCCN3Cc3ccc(C(F)(F)F)cc3N3CCCC3)CC2)n1`
OUT: ≥ 7.00

IN: For UniProt:Q99685, give the measured pIC50 of the entry `CS(=O)(=O)Nc1ccn(C(=O)N2CCN(Cc3ccc(Cl)c(N4CCCC4)c3)CC2)n1`
OUT: ≥ 7.00

IN: For UniProt:Q99685, give the measured pIC50 of the entry `CS(=O)(=O)Nc1ccn(C(=O)N2CCN(Cc3ccc(C(F)(F)F)c(N4CCN5CCC[C@H]5C4)c3)CC2)n1`
OUT: ≥ 7.00

* * *

System: MAGL (Mus musculus, UniProt O35678)
Construct: Proteomes (mouse brain membrane fraction or cell lysates); from tissue; host or cells: mouse brain membrane fraction (or cell lysates)
Sequence (O35678 whole entry): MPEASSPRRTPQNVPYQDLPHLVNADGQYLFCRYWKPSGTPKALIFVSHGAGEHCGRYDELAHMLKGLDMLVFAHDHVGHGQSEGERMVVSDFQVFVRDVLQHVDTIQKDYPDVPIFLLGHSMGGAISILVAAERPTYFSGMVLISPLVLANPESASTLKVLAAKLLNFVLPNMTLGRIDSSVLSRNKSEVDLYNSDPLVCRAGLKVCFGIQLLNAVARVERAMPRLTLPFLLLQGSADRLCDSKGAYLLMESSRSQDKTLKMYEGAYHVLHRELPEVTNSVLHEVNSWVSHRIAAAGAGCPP
Measurement Description: Mouse brain proteomes from inhibitor treated mice (oral gavage, sacrificed 4 h after administration)
Format: in vivo
Assay Context: read-out: MAGL % inh. 5 mg/kg
Assay Endpoint: inhibition at 5 mg/kg

Solved cases (3 shown):
IN: Fill in reported inhibition at 5 mg/kg for this entry: CC1CCCN1c1cc(CN2CCN(C(=O)n3ccc(NS(C)(=O)=O)n3)CC2)ccc1Cl (stereo not shown)
OUT: ≥ 75%

IN: Fill in reported inhibition at 5 mg/kg for this entry: CS(=O)(=O)Nc1ccn(C(=O)N2CCN(Cc3ccc(Cl)c(N4CC5CN(S(C)(=O)=O)CC5C4)c3)CC2)n1 (stereo not shown)
OUT: 0 to 25%

IN: Fill in reported inhibition at 5 mg/kg for this entry: `CC(=O)Nc1ccn(C(=O)N2CCN(Cc3cc(Oc4cncnc4)cc(C(F)(F)F)c3)CC2)n1`
OUT: 25 to 50%

Further cases:
IN: Fill in reported inhibition at 5 mg/kg for this entry: `CC(=O)Nc1ccn(C(=O)N2CCN(Cc3ccc(Cl)cc3N3CCOCC3)CC2)n1`
OUT: 25 to 50%

IN: Fill in reported inhibition at 5 mg/kg for this entry: `CC(=O)Nc1ccn(C(=O)N2CCN(Cc3ccc(C(F)(F)F)cc3OC3CCN(C4CC4)CC3)CC2)n1`
OUT: 25 to 50%

IN: Fill in reported inhibition at 5 mg/kg for this entry: `CS(=O)(=O)Nc1ccn(C(=O)N2CCN(Cc3ccc(Cl)c(OC4CCOCC4)c3)CC2)n1`
OUT: 25 to 50%

IN: Fill in reported inhibition at 5 mg/kg for this entry: `CC(=O)Nc1ccn(C(=O)N2CCN(Cc3ccc(C(F)(F)F)cc3N3CCC4(CC3)CCN(S(C)(=O)=O)C4)CC2)n1`
OUT: 0 to 25%
